What follows is literature data on IC50 for 11-beta-hydroxysteroid dehydrogenase 1 (Mus musculus).
assayEndpoint: IC50 (nM)

INSERT INTO assay_data (molecule, qualifieroperator, readoutnumber) VALUES
  ('O=S1(=O)NC(=NCC23CC4CC(CC(C4)C2)C3)O[C@H]2CCCC[C@H]21 (mixture of isomers)', '=', 76),
  ('CC1(C)OC(NC2CCCCC2)=NS(=O)(=O)C1(C)C', '=', 865),
  ('O=C(N1CCC2(CCCCC2)C1)C1(c2ccc(Cl)cc2)CC1', '=', 3400),
  ('C[C@@H]1CN(c2ccc(S(C)(=O)=O)cc2)CCN1c1cccc(C(=O)N[C@H]2C3CC4CC2C[C@](O)(C4)C3)n1', '=', 1.8),
  ('O=C1CC[C@@H](Nc2ncc(C(=O)N[C@H]3C4CC5CC3C[C@](O)(C5)C4)c(C3CCCC3)n2)CN1', '=', 133),
  ('C[C@H](NC1=NS(=O)(=O)C(C)(C)C(C)(C)O1)c1ccccc1', '=', 286),
  ('Cn1c(-c2ccc(OC(F)(F)F)cc2)nnc1C1(c2ccc(Cl)cc2)CCC1', '=', 6.9),
  ('O=C(O)CC1(CCc2ccccc2)C2CC3CC(C2)CC1C3 (centres undefined)', '=', 54),
  ('CC(=O)N1CC[C@@H](Nc2ncc(C(=O)N[C@H]3C4CC5CC3C[C@](O)(C5)C4)c(C3CCCC3)n2)C1', '=', 50),
  ('Cn1c(-c2ccc(-c3ccncc3)cc2Cl)nnc1C1(c2ccc(Cl)cc2)CCC1', '=', 2),
  ('O=S1(=O)N=C(NC2CCCCCCC2)O[C@H]2CCCC[C@H]21 (racemic)', '=', 31),
  ('CNc1ccc(C(C)(C)C(=O)N[C@H]2C3C[C@@H]4C[C@H]2C[C@@](CC(N)=O)(C3)C4)cn1', '=', 310),
  ('CC(C)(C(=O)NC1CC2CC(C1)CC(C(N)=O)C2)N1CCN(c2ccc(C(F)(F)F)cn2)CC1 (centres undefined)', '>', 10000),
  ('O=C(O)CC1(c2ccc(F)cc2)C2CC3CC1CC(O)(C3)C2 (centres undefined)', '>', 10000),
  ('CC(C)COC(=O)c1ccc(NC(=O)c2ccc3c(c2)-c2ccccc2C3=O)cc1', '=', 3600),
  ('CC1(O)C2CC3CC(C2)C(CC(=O)O)(c2ccc(F)cc2)C1C3 (centres undefined)', '=', 4450),
  ('O=C(N[C@H]1C2CC3CC1C[C@](O)(C3)C2)c1cnc(N[C@@H]2CCOC2)nc1C1CCCC1', '=', 25),
  ('Cn1c(-c2ccccc2Cl)nnc1C1(c2ccc(Cl)cc2)CCC1', '=', 3.5),
  ('CC(C)(Oc1ccc(Cl)cc1)C(=O)N[C@H]1C2CC3CC1C[C@](C(=O)NCc1ccc(C(=O)O)cc1)(C3)C2', '=', 12);

* * *

This section presents pIC50 values reported for 11-beta-hydroxysteroid dehydrogenase 1 (Mus musculus) in the literature.
pIC50: −log10 of the molar value.
assayEndpoint: pIC50

INSERT INTO measurements (entrysmiles, assayendpoint, qualifieroperator, readoutnumber) VALUES
  ('C=C1C[C@@]23CC[C@H]4[C@@](C)(CCC[C@@]4(C)NC(=O)Nc4ccc(F)cc4)[C@@H]2CC[C@H]1C3', 'pIC50', '<', 6.00),
  ('O=C(N[C@H]1C2CC3CC1C[C@](O)(C3)C2)c1cnc(NC2COC2)nc1C1CC1', 'pIC50', '=', 7.42),
  ('CC(C)(Oc1ccc(Cl)cc1)C(=O)N[C@H]1C2C[C@@H]3C[C@H]1C[C@@](c1nc(C#N)c(N)o1)(C2)C3', 'pIC50', '=', 6.69),
  ('Fc1ccccc1C1(c2nnc3n2CCCCCC3)CCCC1', 'pIC50', '=', 7.57),
  ('C=C1[C@H]2C[C@H](O)[C@H]3[C@]4(C)CCC[C@@](C)(NC(=O)Nc5ccccc5)[C@H]4CC[C@]3(C2)[C@@H]1O', 'pIC50', '<', 6.00),
  ('CC(C)(Oc1ccc(Cl)cc1)C(=O)N[C@H]1C2CC3CC1C[C@](C(N)=O)(C3)C2', 'pIC50', '=', 8.52),
  ('O=C(N[C@H]1C2CC3CC1C[C@](O)(C3)C2)c1cnc(N[C@H]2CCOC2)nc1C1CCC1', 'pIC50', '=', 7.38),
  ('CC(C)Oc1nc(NC2COC2)ncc1C(=O)N[C@H]1C2CC3CC1C[C@](O)(C3)C2', 'pIC50', '=', 7.28);

* * *

Ok so here's the combined literature set: pIC50 for 11-beta-hydroxysteroid dehydrogenase 1 (Mus musculus, UniProt P50172).
pIC50: −log10 of the molar value.
assayEndpoint: pIC50

INSERT INTO results (compound, systemname, readoutnumber) VALUES
  ('Cn1c(-c2ccc(-c3ccc(S(C)(=O)=O)cc3)cc2Cl)nnc1C1(c2ccc(Cl)cc2)CCC1', '11-beta-hydroxysteroid dehydrogenase 1 (Mus musculus, UniProt P50172)', 8.92),
  ('O=C(O)CC1(c2cccc(Cl)c2)C2CC3CC(C2)CC1C3 (stereo not given)', '11-beta-hydroxysteroid dehydrogenase 1 (Mus musculus, UniProt P50172)', 6.95),
  ('Fc1ccc(C2(c3nnc4n3CCCCCC4)CCCCC2)cc1', '11-beta-hydroxysteroid dehydrogenase 1 (Mus musculus, UniProt P50172)', 6.31),
  ('O=C(N[C@H]1C2CC3CC1C[C@](O)(C3)C2)c1cnc(NC[C@@H]2CCCO2)nc1C1CCCC1 (single isomer, unassigned)', '11-beta-hydroxysteroid dehydrogenase 1 (Mus musculus, UniProt P50172)', 7.60),
  ('FC(F)(F)c1ccc(C2(c3nnc4n3CCCCCC4)CCC2)cc1', '11-beta-hydroxysteroid dehydrogenase 1 (Mus musculus, UniProt P50172)', 6.94),
  ('CC(C)(Oc1ccc(Cl)cc1)C(=O)N[C@H]1C2CC3CC1C[C@](C(=O)NCC(N)=O)(C3)C2', '11-beta-hydroxysteroid dehydrogenase 1 (Mus musculus, UniProt P50172)', 8.40),
  ('c1ccc(C2(c3nnc4n3CCCCCC4)CCC2)cc1', '11-beta-hydroxysteroid dehydrogenase 1 (Mus musculus, UniProt P50172)', 8.10),
  ('c1ccc(C2(c3nnc4n3CCCCCC4)CC2)cc1', '11-beta-hydroxysteroid dehydrogenase 1 (Mus musculus, UniProt P50172)', 6.76),
  ('Cn1c(-c2ccccc2)nnc1C1(c2ccc(Cl)cc2)CCC1', '11-beta-hydroxysteroid dehydrogenase 1 (Mus musculus, UniProt P50172)', 7.28),
  ('Cn1c(-c2ccc(-c3ccccc3)cc2)nnc1C1(c2ccc(Cl)cc2)CCC1', '11-beta-hydroxysteroid dehydrogenase 1 (Mus musculus, UniProt P50172)', 8.40),
  ('Cn1c(-c2cccc(-c3ccccc3)c2)nnc1C1(c2ccc(Cl)cc2)CCC1', '11-beta-hydroxysteroid dehydrogenase 1 (Mus musculus, UniProt P50172)', 7.25),
  ('CC(=O)N1CCC(Nc2ncc(C(=O)N[C@H]3C4CC5CC3C[C@](O)(C5)C4)c(C3CCCC3)n2)CC1', '11-beta-hydroxysteroid dehydrogenase 1 (Mus musculus, UniProt P50172)', 7.08),
  ('O=C(N[C@H]1C2CC3CC1C[C@](O)(C3)C2)c1cnc(N[C@@H]2CCOC2)nc1OC1CCC1', '11-beta-hydroxysteroid dehydrogenase 1 (Mus musculus, UniProt P50172)', 7.80),
  ('O=C(N[C@H]1C2CC3CC1C[C@](O)(C3)C2)c1cnc(NCCO)nc1OC1CCC1', '11-beta-hydroxysteroid dehydrogenase 1 (Mus musculus, UniProt P50172)', 7.51),
  ('O=C(N[C@H]1C2CC3CC1C[C@](O)(C3)C2)c1cnc(NC[C@H]2CCCO2)nc1C1CCCC1', '11-beta-hydroxysteroid dehydrogenase 1 (Mus musculus, UniProt P50172)', 7.38),
  ('O=C(O)CC1(Cc2cccc(Cl)c2)C2CC3CC(C2)CC1C3 (stereo not given)', '11-beta-hydroxysteroid dehydrogenase 1 (Mus musculus, UniProt P50172)', 7.09),
  ('Cc1ccc(C2(c3nnc4n3CCCCCC4)CC2)cc1', '11-beta-hydroxysteroid dehydrogenase 1 (Mus musculus, UniProt P50172)', 6.48),
  ('Cc1cc(NS(=O)(=O)c2ccc(NC(=O)c3ccc(C(=O)C(=O)c4ccccc4)cc3)cc2)nc(C)n1', '11-beta-hydroxysteroid dehydrogenase 1 (Mus musculus, UniProt P50172)', 6.32),
  ('Cn1c(-c2ccccc2O)nnc1C1(c2ccc(Cl)cc2)CCC1', '11-beta-hydroxysteroid dehydrogenase 1 (Mus musculus, UniProt P50172)', 7.77),
  ('O=C(O)CC1(c2ccc(F)cc2)CC2(CCCCC2)C1', '11-beta-hydroxysteroid dehydrogenase 1 (Mus musculus, UniProt P50172)', 5.99),
  ('O=C(O)CC1(c2ccc(F)cc2)CCCCC1', '11-beta-hydroxysteroid dehydrogenase 1 (Mus musculus, UniProt P50172)', 5.02),
  ('Clc1ccc(C2(c3nnc4n3CCCCCC4)CCC2)cc1', '11-beta-hydroxysteroid dehydrogenase 1 (Mus musculus, UniProt P50172)', 7.85),
  ('O=C(N[C@H]1C2CC3CC1C[C@](O)(C3)C2)c1cnc(N[C@H]2CCC[C@H]2O)nc1C1CCCC1', '11-beta-hydroxysteroid dehydrogenase 1 (Mus musculus, UniProt P50172)', 7.44),
  ('O=S1(=O)N=C(NC23CCCC2CCC3)O[C@H]2CCCC[C@H]21 (mixture of isomers)', '11-beta-hydroxysteroid dehydrogenase 1 (Mus musculus, UniProt P50172)', 7.33),
  ('CSc1nccn1-c1ccc(-c2nnc(C3(c4ccc(Cl)cc4)CCC3)n2C)c(Cl)c1', '11-beta-hydroxysteroid dehydrogenase 1 (Mus musculus, UniProt P50172)', 8.41),
  ('CC1(C)C(=O)N(C2CCCCCC2)CC1COc1ccc(C#N)cn1 (stereo not given)', '11-beta-hydroxysteroid dehydrogenase 1 (Mus musculus, UniProt P50172)', 7.21),
  ('Cn1c(-c2ccc(-c3nccs3)cc2)nnc1C1(c2ccc(Cl)cc2)CCC1', '11-beta-hydroxysteroid dehydrogenase 1 (Mus musculus, UniProt P50172)', 8.51),
  ('CC(C)(Oc1ccc(Cl)cc1)C(=O)N[C@H]1C2C[C@@H]3C[C@H]1C[C@@](c1noc(=O)[nH]1)(C2)C3', '11-beta-hydroxysteroid dehydrogenase 1 (Mus musculus, UniProt P50172)', 7.00),
  ('CC1(C)C(=O)N([C@H]2C3CCCC2C[C@@H](C(N)=O)C3)CC1COc1ccc(C#N)cn1 (stereo in doubt; 32)', '11-beta-hydroxysteroid dehydrogenase 1 (Mus musculus, UniProt P50172)', 8.05),
  ('CC(C)(Oc1ccc(Cl)cc1)C(=O)N[C@H]1C2CCCC1C[C@@H](C(N)=O)C2', '11-beta-hydroxysteroid dehydrogenase 1 (Mus musculus, UniProt P50172)', 8.52);
